Test summary: Cytotoxicity against mouse L929 cells assessed as inhibition of cell viability incubated for 96 hrs by MTT assay
Assay type: toxicity, cell-based
// boundary case: CC50 at 96 h equal to 100 µM maps to F; strictly smaller maps to T

- C/C(=N\N=c1\scc(-c2ccc(F)cc2)n1-c1ccccc1)c1cccnc1: T

Task item: Does the reported CC50 at 96 h of C/C(=N\Nc1nc(-c2ccccc2)cs1)c1cccnc1 stay below 100 µM?
Reply: F

Task item: Further, for C/C(=N\N=c1\scc(-c2ccc([N+](=O)[O-])cc2)n1C)c1cccnc1 ?
Reply: T

Task item: Now consider O=C(Cn1ccnc1[N+](=O)[O-])NCc1ccccc1 and answer again.
Reply: F

Task item: Param item: C/C(=N\Nc1nc(-c2cccc([N+](=O)[O-])c2)cs1)c1cccnc1
Reply: F

Task item: And the next one, COc1ccc(-c2cs/c(=N/N=C(\C)c3cccnc3)[nH]2)cc1 ?
Reply: T

Task item: Thanks! And C/C(=N\N=c1/[nH]c(-c2ccc([N+](=O)[O-])cc2)cs1)c1cccnc1 ?
Reply: F

Task item: Next: C/C(=N\N=c1\scc(-c2ccccc2)n1C)c1cccnc1
Reply: T

Task item: Also C/C(=N\N=c1\scc(-c2ccccc2)n1-c1ccccc1)c1cccnc1 ?
Reply: T

----------
System: RAW264.7
Test summary: Immunomodulatory activity in mouse RAW264.7 cells assessed as decrease in TNF production at 1 to 4 times IC50 incubated for 24 to 144 hrs by flow cytometric analysis
Format: functional, cell-based
Experimental parameters: time 24-144 hrs
Active and inactive are the calls of the source. No cut-off for these calls is given here.
Result category, one only: active, inactive

• C/C(=N\N=c1\scc(-c2ccccc2)n1C)c1cccnc1 = active

Task item: What call does the record list for C/C(=N\Nc1nc(-c2cccc([N+](=O)[O-])c2)cs1)c1cccnc1 ?
Reply: inactive

Task item: Here is the next compound: C/C(=N\Nc1nc(-c2ccccc2)cs1)c1cccnc1
Reply: active

Task item: Repeat for the following compound: COc1ccc(-c2cs/c(=N/N=C(\C)c3cccnc3)[nH]2)cc1
Reply: inactive

----------
Test summary: Cytotoxicity against mouse RAW264.7 cells assessed as inhibition of cell viability incubated for 48 hrs by MTT assay
Type: toxicity, cell-based
In this section we review reported log10 of CC50 at 48 h values for a set of molecules.
Lab note - CC50 at 48 h converted to log10 from values in µM.

# example entries with known answers
* C/C(=N\N=c1\scc(-c2ccc(F)cc2)n1-c1ccccc1)c1cccnc1 | 1.61
* COc1ccc(-c2cs/c(=N/N=C(\C)c3cccnc3)n2C)cc1 | 1.17
* COc1ccc(-c2cs/c(=N/N=C(\C)c3cccnc3)n2-c2ccccc2)cc1 | 1.34
* C/C(=N\N=c1\scc(-c2ccc([N+](=O)[O-])cc2)n1-c1ccccc1)c1cccnc1 | 1.34
* C/C(=N\N=c1\scc(-c2ccc(C)cc2)n1C)c1cccnc1 | 1.56
* COc1ccc(-c2cs/c(=N/N=C(\C)c3cccnc3)[nH]2)cc1 | 1.22
* C/C(=N\N=c1/[nH]c(-c2ccc(F)cc2)cs1)c1cccnc1 | 1.72
* C/C(=N\N=c1\scc(-c2ccc(C)cc2)n1-c1ccccc1)c1cccnc1 | 1.27

Next molecule, log10 of CC50 at 48 h to be filled in.
Task item: Data request, read-out log10 of CC50 at 48 h, for C/C(=N\Nc1nc(-c2cccc([N+](=O)[O-])c2)cs1)c1cccnc1
Reply: 1.55

----------
Test summary: Selectivity index, ratio of CC50 for mouse L929 cells to IC50 for antiparasitic activity against trypomastigote and amastigote form of Trypanosoma cruzi Tulahuen expressing Escherichia coli beta-galactosidase infected in mouse L929 cells
Assay type: toxicity
Experimental parameters: read-out: Selectivity Index
Property name: selectivity ratio
No unit in the answer, please; the number alone is enough.

- C/C(=N\N=c1\scc(-c2ccc(C)cc2)n1-c1ccccc1)c1cccnc1: 2.1
- C/C(=N\N=c1\scc(-c2ccc(F)cc2)n1C)c1cccnc1: 4.2
- O=C(Cn1ccnc1[N+](=O)[O-])NCc1ccccc1: 494

Task item: Would you mind telling me what selectivity ratio value was observed for C/C(=N\N=c1\scc(-c2ccc([N+](=O)[O-])cc2)n1-c1ccccc1)c1cccnc1 ?
Reply: 8.9

Task item: Check C/C(=N\N=c1\scc(-c2ccc(F)cc2)n1-c1ccccc1)c1cccnc1 too.
Reply: 1.9

Task item: What about this molecule? COc1ccc(-c2cs/c(=N/N=C(\C)c3cccnc3)[nH]2)cc1
Reply: 64.7

Task item: Subsequent entry: COc1ccc(-c2cs/c(=N/N=C(\C)c3cccnc3)n2C)cc1
Reply: 3.1

Task item: Try this molecule next: C/C(=N\N=c1\scc(-c2cccc([N+](=O)[O-])c2)n1C)c1cccnc1
Reply: 13.3

Task item: Same question for C/C(=N\Nc1nc(-c2ccccc2)cs1)c1cccnc1 please.
Reply: 531

Task item: Okay, and C/C(=N\Nc1nc(-c2cccc([N+](=O)[O-])c2)cs1)c1cccnc1 ?
Reply: 284

Task item: Another molecule to check: C/C(=N\N=c1\scc(-c2ccc(C)cc2)n1C)c1cccnc1
Reply: 4.7

Task item: Likewise for C/C(=N\N=c1/[nH]c(-c2ccc(C)cc2)cs1)c1cccnc1 ?
Reply: 75.1

Task item: Try the molecule C/C(=N\N=c1\scc(-c2ccccc2)n1-c1ccccc1)c1cccnc1
Reply: 2

Task item: Okay, and C/C(=N\N=c1\scc(-c2ccc([N+](=O)[O-])cc2)n1C)c1cccnc1 ?
Reply: 35.4

Task item: What about C/C(=N\N=c1\scc(-c2ccccc2)n1C)c1cccnc1 ?
Reply: 11.7

Task item: C/C(=N\N=c1\scc(-c2cccc([N+](=O)[O-])c2)n1-c1ccccc1)c1cccnc1 , same question.
Reply: 6.3

----------
Test system: Leishmania infantum
Test summary: Antiparasitic activity against Leishmania infantum amastigote expressing Escherichia coli beta-galactosidase infected in mouse RAW264.7 cells assessed as reduction in parasitic growth using CPRG as substrate preincubated with compound for 24 hrs followed by substrate addition and measured after 2 to 6 hrs by Spectrophotometric analysis
Type: functional, organism-based
Experimental parameters: Leishmania infantum, RAW264.7; read-out: IC50
Parameter: pIC50. Scope: all listed entries.
Please note pIC50 is a logarithmic value: minus log10 of concentration in mol/L. Answer with that number alone.

Task item: Request the reported pIC50 associated with C/C(=N\N=c1\scc(-c2ccc(C)cc2)n1C)c1cccnc1
Reply: 4.74

Task item: And for C/C(=N\NC(N)=S)c1cccnc1 ?
Reply: 3.79

Task item: Similarly, C/C(=N\Nc1nc(-c2ccccc2)cs1)c1cccnc1 ?
Reply: 3.99

Task item: Also C/C(=N\N=c1\scc(-c2ccccc2)n1C)c1cccnc1 ?
Reply: 5.08

Task item: Another compound: C[C@@H]1[C@H](O)[C@@H](C)/C=C/C=C/C=C/C=C/C=C/C=C/C=C/[C@H](O[C@@H]2O[C@H](C)[C@@H](O)[C@H](N)[C@@H]2O)C[C@@H]2O[C@](O)(C[C@@H](O)C[C@@H](O)[C@H](O)CC[C@@H](O)C[C@@H](O)CC(=O)O[C@H]1C)C[C@H](O)[C@H]2C(=O)O
Reply: 7.22

----------
Recorded selectivity ratio by entry
Test summary: Selectivity index, ratio of CC50 for mouse RAW264.7 cells to IC50 for antiparasitic activity against Leishmania infantum MHOM/MA/67/ITMAP-263 promastigote expressing Escherichia coli beta-galactosidase
Type: toxicity
Experimental parameters: read-out: Selectivity Index
Quick one: just the number, no unit, thanks!

Would you please look over these solved cases?
- C/C(=N\N=c1\scc(-c2ccccc2)n1-c1ccccc1)c1cccnc1: 0.9
- COc1ccc(-c2cs/c(=N/N=C(\C)c3cccnc3)n2-c2ccccc2)cc1: 1.3
- COc1ccc(-c2cs/c(=N/N=C(\C)c3cccnc3)[nH]2)cc1: 0.1
- C/C(=N\NC(=S)Nc1ccccc1)c1cccnc1: 4.4
- C/C(=N\N=c1\scc(-c2ccccc2)n1C)c1cccnc1: 1.1

Task item: Entry C/C(=N\Nc1nc(-c2ccccc2)cs1)c1cccnc1 has what selectivity ratio?
Reply: 3.4

Task item: Next record, please: CCCCCCCCCCCCCCCCOP(=O)([O-])OCC[N+](C)(C)C
Reply: 6.8

Task item: Another compound to look at: C/C(=N\N=c1\scc(-c2ccc(C)cc2)n1C)c1cccnc1
Reply: 0.7

Task item: Can you check C/C(=N\N=c1\scc(-c2ccc([N+](=O)[O-])cc2)n1C)c1cccnc1 next?
Reply: 0.2

Task item: Same question for C/C(=N\N=c1\scc(-c2ccc(F)cc2)n1C)c1cccnc1 please.
Reply: 0.7

Task item: And the next one, C/C(=N\N=c1\scc(-c2ccc(C)cc2)n1-c1ccccc1)c1cccnc1 ?
Reply: 1.3

Task item: And what about the compound C[C@@H]1[C@H](O)[C@@H](C)/C=C/C=C/C=C/C=C/C=C/C=C/C=C/[C@H](O[C@@H]2O[C@H](C)[C@@H](O)[C@H](N)[C@@H]2O)C[C@@H]2O[C@](O)(C[C@@H](O)C[C@@H](O)[C@H](O)CC[C@@H](O)C[C@@H](O)CC(=O)O[C@H]1C)C[C@H](O)[C@H]2C(=O)O ?
Reply: 17.5

Task item: Subsequent entry: C/C(=N\N=c1\scc(-c2ccc([N+](=O)[O-])cc2)n1-c1ccccc1)c1cccnc1
Reply: 0.2

Task item: Next record, please: C/C(=N\N=c1\scc(-c2ccc(F)cc2)n1-c1ccccc1)c1cccnc1
Reply: 1.4

Task item: Then COc1ccc(-c2cs/c(=N/N=C(\C)c3cccnc3)n2C)cc1 ?
Reply: 0.7
